Ref: the SangsterLogP compilation

EXPERIMENTAL READOUT: logP

Some entries whose results are on file:
MOL SMILES: CC(=O)Oc1ccc(C)cc1
logP: 2.11

MOL SMILES: N#Cc1ccccc1O
logP: 1.59

MOL SMILES: CC(=O)Nc1ccccc1C(=O)O
logP: 1.73

[P] CSc1ccc(C(=O)O)cc1
[Q] CS(=O)(=O)c1ccc(N)cc1
[R] CSc1ccccc1N
[S] CSc1ccc(O)cc1
Q: Thanks in advance: please rank these 4 entries by logP, highest to lowest. Give your ranking as a list of the labels in the requested order.
Result: P, S, R, Q

====

EXPERIMENTAL READOUT: logP

MOL SMILES: COc1ccccc1Oc1ccccc1
OBSERVED: 2.92

MOL SMILES: CC(=O)Nc1ccccc1O
OBSERVED: 0.72

MOL SMILES: CSc1cccc(N)c1
OBSERVED: 1.45

MOL SMILES: Cc1ccccc1C=O
OBSERVED: 2.26

[P] O=Cc1ccc(OCC(=O)O)cc1
[Q] CC(=O)Oc1cccc(C)c1
Q: Could you determine which record has the numerically smaller logP? Candidates: P and Q Answer by stating the label of the chosen item.
Result: P
